target: mouse METAP1(1-59) (mouse, UniProt Q8BP48 1-59); experiment: other fluorescence titration
QUANTITY: Kd

[[record]]
binder = "Ac-MEDEDECPELVPIKEKPSG-NH2 [zebrafish Zng1 N-terminal peptide, synthetic]"
quantity = "Kd"
result = "~100 nM"


Just so you know, measured Kd for Ac-EEDPAEEDCPELVPIETTQSE-NH2 [human ZNG1 N-terminal peptide, synthetic] came out at ~100 nM
